The following compounds are listed with their measured inhibition at 1 µM values.
Target Entity: FAAH (Mus musculus, UniProt O08914)
Construct: Proteomes (mouse brain membrane fraction or cell lysates); from tissue; host or cells: mouse brain membrane fraction (or cell lysates, not specified)
Sequence (O08914 whole entry): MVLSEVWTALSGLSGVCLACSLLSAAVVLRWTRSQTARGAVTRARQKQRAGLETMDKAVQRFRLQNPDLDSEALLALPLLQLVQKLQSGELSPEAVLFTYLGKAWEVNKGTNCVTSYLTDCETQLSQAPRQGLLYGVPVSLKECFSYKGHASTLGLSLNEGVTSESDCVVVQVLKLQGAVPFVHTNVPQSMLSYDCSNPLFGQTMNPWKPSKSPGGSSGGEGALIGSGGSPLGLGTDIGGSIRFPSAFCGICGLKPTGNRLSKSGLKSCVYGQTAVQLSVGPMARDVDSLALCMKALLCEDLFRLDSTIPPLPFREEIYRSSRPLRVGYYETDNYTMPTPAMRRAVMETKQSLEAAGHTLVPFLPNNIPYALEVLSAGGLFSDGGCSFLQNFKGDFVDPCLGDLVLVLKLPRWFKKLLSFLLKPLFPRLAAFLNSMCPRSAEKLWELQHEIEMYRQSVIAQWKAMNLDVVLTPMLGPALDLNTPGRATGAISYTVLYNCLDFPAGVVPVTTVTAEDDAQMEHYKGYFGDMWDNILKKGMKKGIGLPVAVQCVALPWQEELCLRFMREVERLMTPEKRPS
Assay Method Text: In vitro competitive activity-based protein profiling (gel-based, FP-Rh or HT-01 probe)
Type: biochemical
Assay Context: 1 μM inhibitor; read-out: % Inhibition at 1 μM, B = FAAH
Experimental: In Vitro Competitive Activity-Based Protein Profiling. Proteomes (mouse brain membrane fraction or cell lysates) (50 μL, 1.0 mg/mL total protein concentration) were preincubated with varying concentrations of inhibitors at 37° C. […] Following gel imaging, serine hydrolase activity was determined by measuring fluorescent intensity of gel bands corresponding to MAGL, ABHD6, FAAH, and PLA2G7 using ImageJ 1.43u software.

Compound	Measured Property	Reported Measurement
Cc1cnn(C(=O)N2CCN(S(C)(=O)=O)CC2)c1 [Example 162]	inhibition at 1 µM	< 25%
O=C(N1CCN(Cc2ccc(Cl)cc2)CC1)n1cc(Cl)cn1 [Example 226]	inhibition at 1 µM	> 75%
O=C(N1CCCCC1)n1cc(-c2ccccc2)cn1 [Example 136]	inhibition at 1 µM	> 75%

Exam item: # input compound: CCN(Cc1ccc(Cl)cc1)C(=O)n1cc(Cl)cn1 [Example 131] ; wanted: its inhibition at 1 µM
Marked response: > 75%
